Assay: Mycobacterium tuberculosis growth inhibition, primary screen (AID 1259343)
Conditions: at 10 µM, stronger effect = higher value
The campaign covered roughly 6,200 compounds. About 2,900 (47%) were called active. So high a share suggests a set chosen from earlier hits. This is one part of the list.
# key: entry, value: inhibition

substance-smiles: O=C(Nc1ccccn1)C1CCN(c2cccc(C(F)(F)F)n2)CC1
inhibition / %: 92.4

substance-smiles: O=[N+]([O-])c1cccnc1Oc1ccc(Oc2ccccc2)cc1
inhibition / %: 94.5

substance-smiles: COCCCNc1ccc2c(-c3ccccc3F)noc2n1
inhibition / %: 76.1

----------
# key: entry, value: inhibition
Assay: Mycobacterium tuberculosis growth inhibition, primary screen (AID 1259343)
Details: at 10 µM, stronger effect = higher value
Out of some 6,200 compounds screened, about 2,900 (47%) were called active. So high a share suggests a set chosen from earlier hits. Some of the results follow.
measurement-kind: inhibition (%)

compound: FC(F)(F)C1CCCN(c2nsc3ccccc23)C1 (stereo not drawn)
value-observed: 101

compound: O=C1C(c2ccccc2)C=Nc2c(-c3ccccc3)cnn21 (stereo not drawn)
value-observed: -23.2

compound: N#Cc1cnc(N(Cc2cccc(O)c2)CC2CC2)c(Cl)c1
value-observed: -4.43

compound: COc1ccccc1-n1cc(-c2ccnc(N(C)Cc3cccc(C)n3)n2)cn1
value-observed: 29.4

compound: NC(N)=NCCCCN=C(N)N
value-observed: 0.43

compound: CC(C)CC(=O)Nc1nnc(C(C)(C)C)s1
value-observed: 17.4

compound: Cc1ccc(NCc2nsc(N(C)C)n2)c(F)c1
value-observed: 51

compound: Cc1ccc(-c2cnn3c(NCCOCCO)cc(C(C)(C)C)nc23)cc1
value-observed: -3.38

----------
Test: Mycobacterium tuberculosis growth inhibition, primary screen (AID 1259343)
Conditions: at 10 µM, stronger effect = higher value
Screen size: about 6,200 compounds; about 2,900 (47%) were called active. So high a share suggests a set chosen from earlier hits. Some of the results follow.
We use 20% as the dividing line for inhibition: on or above the line is met, below is not met.

compound: CCc1ccc(CNC(=O)Nc2ccc(C#N)cc2)s1
cat: met
--
compound: Nc1ccc(Oc2ccc(N)cc2)cc1
cat: not met
--
compound: CCC(C)(C)c1ccc(Oc2ccc(N)cc2)cc1
cat: met
--
compound: Cc1c2c(nc3cc4c(cc13)OCO4)CCc1ccccc1-2
cat: met
--
compound: c1ccc2c(c1)CN1CCCC1=N2
cat: met
--
compound: CCN1C(=O)SC(Nc2ccc(OC)cc2)C1=O (configuration not stated)
cat: met
--
compound: CC(C)C(NC(=O)C1=Cc2ccccc2OC1)c1cccs1 (configuration not stated)
cat: not met

----------
Experiment: Mycobacterium tuberculosis growth inhibition, primary screen (AID 1259343)
Settings: at 10 µM, stronger effect = higher value
The whole screen tested about 6,200 compounds, of which about 2,900 (47%) were called active. The set was probably picked from earlier hits. This is one part of the list.
# key: entry, value: inhibition

compound: Cc1[nH]c(=S)sc1CC(=O)Nc1cccc(OCc2ccc(F)cc2)c1
inhibition (%): 38.9
--
compound: C/C(=C\c1ccccc1)C1Nc2ccccc2C(=O)N1C (configuration not stated)
inhibition (%): 48.1
--
compound: COc1cc(Cc2cnc(N)nc2N)cc(OC)c1OC
inhibition (%): 98.3
--
compound: NC(=S)Nc1ccc(F)c(Cl)c1
inhibition (%): 4.04
--
compound: NC(c1csc(Nc2nncc3ccccc23)n1)C1CCCCC1 (configuration not stated)
inhibition (%): 97.4
--
compound: CCc1ccc(/C=C/S(=O)(=O)Nc2onc(C)c2C)cc1
inhibition (%): 68.3
--
compound: O=C1NC(=Nc2ccccc2Cl)S/C1=C\c1ccsc1
inhibition (%): 59.3
--
compound: O=C(Nc1ccc(C(F)(F)F)[nH]c1=O)c1ccccc1
inhibition (%): -22.3
--
compound: CCCc1ccc(S(=O)(=O)Nc2ccc(F)cc2C(=O)O)cc1
inhibition (%): -3.59
--
compound: O=C(CN1CCN(C(=O)C2CCCO2)CC1)Nc1ccc(-c2ccccc2)cc1 (configuration not stated)
inhibition (%): 4.56
--
compound: FC(F)(F)c1nnc2n1Nc1nc3ccccc3nc1S2
inhibition (%): 100
--
compound: Cc1ccc(NS(=O)(=O)c2ccc(C)c(F)c2)c(C(=O)O)c1
inhibition (%): 8.32
--
compound: NC(=S)Nc1ccc(Cl)cc1
inhibition (%): 7.09
--
compound: CC(=O)Nc1cccc(OCc2ccc(F)cc2)c1
inhibition (%): 92.5
--
compound: CC(C)N1C(=O)c2ccccc2NS1(=O)=O
inhibition (%): 72.9
--
compound: O=S(=O)(Nc1cccc(F)c1)c1cc(Br)ccc1Br
inhibition (%): 29.6
--
compound: CSc1ccc(C=CC(=O)c2ccc3c(c2)OCCO3)cc1
inhibition (%): -10.1
--
compound: N#Cc1ccc(CSc2ncccn2)cc1
inhibition (%): -28.1
--
compound: O=S(=O)(CCCOc1ccc2c(c1)OCO2)N1CCCCCC1
inhibition (%): 86
--
compound: N#CC(=Cc1ccc2c(c1)OCCO2)C(=O)Nc1ccc(SC(F)F)cc1
inhibition (%): 84.4
--
compound: O=S(=O)(CCCOc1ccc2c(c1)OCO2)N1CCCCC1
inhibition (%): 88.8
--
compound: N#CCc1cc(-c2ccc(Cl)cc2)on1
inhibition (%): 72.6
--
compound: c1ccc(-c2nc(SCC3CCOCO3)oc2-c2ccccc2)cc1 (configuration not stated)
inhibition (%): -19.9
--
compound: CCN(CC)c1ccc(/C=C2\SC(=S)N(NC(=O)c3ccc(OC)cc3)C2=O)cc1
inhibition (%): 8.8
--
compound: O=S(=O)(Nc1cc(F)ccc1F)c1cccc(Br)c1
inhibition (%): 103
--
compound: CC(=O)Nc1ccc(OCc2cccc(F)c2)c(Cl)c1
inhibition (%): 85.1
--
compound: CC(C)n1c(CCC(=O)O)ccc1-c1ccc(Br)cc1
inhibition (%): 50.3
--
compound: COC(=O)N1CCc2onc(-c3ccc(-c4ccccc4)cc3)c2C1
inhibition (%): 25.7
--
compound: CC(C)n1c(=O)[nH]c2ccccc21
inhibition (%): 19.6
--
compound: N#Cc1nc(-c2ccc(Cl)cc2)oc1NC1CC1
inhibition (%): 26.7
--
compound: CSc1cccc(NC(=O)c2cc(=O)c(OCc3ccc(F)cc3)c[nH]2)c1
inhibition (%): 85.5
--
compound: O=c1c(-c2ccc3c(c2)OCCO3)c(C(F)(F)F)oc2cc(O)ccc12
inhibition (%): 104
--
compound: Cc1ccc(C2CC2C(=O)NC(C)c2nc(C3CCCC3)no2)s1 (configuration not stated)
inhibition (%): 29.8
--
compound: O=C(c1cc(Br)cc(Br)c1)N1CCCCCC1
inhibition (%): -4.59
--
compound: NC(c1csc(Nc2nncc3ccccc23)n1)c1ccccc1Cl (configuration not stated)
inhibition (%): 58.8
--
compound: COc1ccc(OCc2cc(C(=O)NCc3cccc(F)c3)no2)c(Cl)c1
inhibition (%): 34.7
--
compound: O=S(=O)(Nc1ccc(F)cc1F)c1cccc(F)c1
inhibition (%): -36.4
--
compound: CC(NC(=O)COc1ccc(C(F)(F)F)cc1)c1cccc(F)c1 (configuration not stated)
inhibition (%): 9.32
--
compound: CC(c1ccccc1)N1CCN(c2ccc([N+](=O)[O-])cc2)CC1 (configuration not stated)
inhibition (%): 56.5
--
compound: Cc1ccc(C(=O)N2CCCN(C(=O)OC(C)(C)C)CC2)cc1S(C)(=O)=O
inhibition (%): 74.7
--
compound: O=C(Nc1ccc(Cl)cc1)c1c(Cl)nsc1Cl
inhibition (%): 68.1
--
compound: O=S(=O)(Nc1ccc(F)cc1)c1cc(Br)ccc1Br
inhibition (%): 33.5
